Experimental target: Retinoic acid receptor RXR-alpha (Homo sapiens)
Test summary: qHTS assay to identify small molecule agonists of the RXR signaling pathway (AID 1159527); also: nearly all actives have a fitted effect of over 35% in size
Measurement context: HEK293T RXRa-UAS-bla, beta-lactamase ratio, 16 h; series mostly up to 76.8 µM
Excerpt: U.S. Tox21 Program National Center for Advancing Translational Sciences [NCATS] NIH Chemical Genomics Center [NCGC] U.S. Environmental Protection Agency [EPA] National Institutes of Environmental Health Sciences [NIEHS] National Toxicology Program [NTP] U.S. Food and Drug Administration [FDA] Tox21 Assay Overview: The Retinoid X receptor (RXR), a nuclear hormone receptor expressed in liver, spleen, placenta, epidermis, central nervous system. […]
Results filed as inconclusive are left out. The source made the active and inactive calls. Calls follow the shape of the full dose curve.
Measurement type: outcome

Some compounds with known outcome results, for comparison:
Compound	outcome
N#CCCCl	inactive
CNC(=O)N(C)c1nnc(C(C)(C)C)s1	inactive
NCc1cccnc1	inactive
COC(=O)c1sccc1S(=O)(=O)NC(=O)Nc1nc(C)nc(OC)n1	inactive
CCOC(=O)C(C)OC(=O)c1cc(Oc2ccc(C(F)(F)F)cc2Cl)ccc1[N+](=O)[O-] (stereo not drawn)	inactive

What reported outcome corresponds to `O=C(O)C(F)(F)C(F)(F)C(F)(F)C(F)(F)C(F)(F)C(F)(F)C(F)(F)F` on Retinoic acid receptor RXR-alpha (Homo sapiens)?
inactive

====

Test summary: qHTS assay to identify small molecule agonists of the endoplasmic reticulum stress response signaling pathway (AID 1159516)
Measurement context: ESRE-bla HeLa, ER stress beta-lactamase reporter, 5 h; series mostly up to 61 µM
Inconclusive results are not listed. Active and inactive are the calls of the source. Calls follow the shape of the dose curve; as a rule, active = well fitted activation curve with a large enough effect in the signal ratio in the repeat runs (not every such curve was filed as active); inconclusive = weak or mixed curves, or effect the other way; inactive = flat fitted curve, though single readings scatter; the % refers to the signal ratio.
Measurement type: outcome

Some compounds with known outcome results, for comparison:
Compound	outcome
COc1ccc(C=O)cc1	inactive
CCOC(=S)S	inactive
Oc1cc(Cl)ccc1Oc1ccc(Cl)cc1Cl	inactive
Nc1ccncc1	inactive

What outcome value was documented for this compound, `Nc1ccc(Cl)c(Cl)c1` ?
inactive

Can you check `Cc1ccc(N)c(N)c1` next?
inactive

Can you check `O=P(O)(O)CCCl` next?
inactive

Can you check `N#CC(Br)Br` next?
inactive

Can you check `Cc1c(COC(=O)[C@@H]2[C@H](/C=C(\Cl)C(F)(F)F)C2(C)C)cccc1-c1ccccc1` next?
inactive

Can you check `Nc1ccc(Cl)cc1N` next?
inactive

Can you check `CC(C)c1ccc(CO)cc1` next?
inactive

Can you check `CCC(C)(C)c1ccc(O)cc1` next?
inactive

Can you check `CN(C)C(=O)Nc1ccc(Cl)cc1` next?
inactive

Can you check `O=P(Oc1ccccc1)(Oc1ccccc1)Oc1ccccc1` next?
inactive

Can you check `N#CCCCl` next?
inactive

Can you check `CCCCCCOC(=O)c1ccccc1C(=O)OCCCCCC` next?
inactive

Can you check `O=[N+]([O-])c1ccc(O)c([N+](=O)[O-])c1` next?
inactive

Can you check `O=C(CCl)c1ccccc1` next?
inactive

Can you check `Oc1cc(Cl)c(Cl)cc1Cl` next?
inactive

Can you check `CC(C)(OOC(C)(C)c1ccccc1)c1ccccc1` next?
inactive

Can you check `C=CCc1ccc(OC)cc1` next?
inactive

Can you check `C[C@]12CCC(=O)C(O)=C1CC[C@@H]1[C@@H]2CC[C@]2(C)C(=O)CC[C@@H]12` next?
inactive

Can you check `C=C(C)[C@H]1Cc2c(ccc3c2O[C@@H]2COc4cc(OC)c(OC)cc4[C@@H]2C3=O)O1` next?
inactive

Can you check COc1ccc(C(CN(C)C)C2(O)CCCCC2)cc1 (stereo not drawn) next?
inactive

Can you check `OCC(O)CO` next?
inactive

Can you check CCC(C)c1cc([N+](=O)[O-])cc([N+](=O)[O-])c1O (stereo not drawn) next?
inactive

Can you check `Cc1ccccc1[N+](=O)[O-]` next?
inactive

Can you check `C#C[C@]1(O)CC[C@H]2[C@@H]3CCC4=CC(=O)CC[C@]4(C)[C@H]3CC[C@@]21C` next?
inactive

====

Experimental target: Cytochrome P450 2C9 (Homo sapiens) (UniProt P11712)
Sequence (P11712 whole entry, looked up): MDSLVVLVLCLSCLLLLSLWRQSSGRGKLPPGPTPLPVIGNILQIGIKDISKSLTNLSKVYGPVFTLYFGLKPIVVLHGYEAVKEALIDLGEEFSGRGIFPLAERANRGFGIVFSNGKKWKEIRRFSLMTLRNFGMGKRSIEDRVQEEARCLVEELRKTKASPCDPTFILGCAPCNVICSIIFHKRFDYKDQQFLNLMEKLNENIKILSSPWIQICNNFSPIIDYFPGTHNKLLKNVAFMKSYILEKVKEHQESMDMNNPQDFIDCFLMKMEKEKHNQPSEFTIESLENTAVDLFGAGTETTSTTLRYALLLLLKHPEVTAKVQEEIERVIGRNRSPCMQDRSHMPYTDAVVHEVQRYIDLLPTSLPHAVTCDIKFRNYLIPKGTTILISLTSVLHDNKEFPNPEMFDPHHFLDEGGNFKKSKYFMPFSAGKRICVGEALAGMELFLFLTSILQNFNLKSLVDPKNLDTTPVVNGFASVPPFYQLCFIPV
Test summary: Cytochrome P450 Family 2 Subfamily C Member 9 (CYP2C9) small molecule antagonists: luciferase reporter qHTS assay (AID 1671198); also: nearly all actives have a fitted effect of over 50% in size; also: potency is read from the fitted curve at half-maximal effect
Measurement context: P450-Glo CYP2C9 enzyme assay, luciferin luminescence; series mostly up to 115 µM
Records with an inconclusive call do not appear. Activity calls are given as the source filed them. Calls come from the whole dose curve; as a rule, active = well fitted inhibition curve with a large enough effect in the repeat runs; inconclusive = weak or mixed curves; inactive = no such curve, though single readings can be large or run the other way.
Measurement type: Potency

Some compounds with known Potency results, for comparison:
Compound	Measurement type	Result
C=CCN(CC=C)C(=O)C(Cl)Cl	Potency	inactive
NNC(=S)NN	Potency	65 µM (active)
C=CC(=O)OCCO	Potency	inactive
Oc1cc(Cl)c(Cl)cc1Cl	Potency	inactive
CCCCN(CC)c1c([N+](=O)[O-])cc(C(F)(F)F)cc1[N+](=O)[O-]	Potency	31.7 µM (active)
O=Cc1ccco1	Potency	inactive
C=C(C)C(=O)OCC1CO1 (stereo not drawn)	Potency	inactive

What Potency value was documented for this compound, `CCCCCCCCCCCOC(=O)c1ccccc1C(=O)OCCCCCCCCCCC` ?
inactive

====

Test summary: qHTS RealTime-Glo MT Cell Viability Assay in HepG2 cells - 32 hour (AID 1224877); also: nearly all actives have a fitted effect of over 55% in size
Measurement context: RealTime-Glo luminescence; series mostly up to 76.8 µM
Results filed as inconclusive are left out. Activity calls are given as the source filed them. Calls follow the shape of the dose curve; as a rule, active = well fitted cell-killing curve with a large enough effect in the repeat runs; inconclusive = weak or mixed curves; inactive = flat fitted curve, though single readings scatter.
Measurement type: outcome

Compound structure string	outcome
S=C1NCCN1	inactive
N#Cc1cc(Br)c(O)c(Br)c1	inactive
CCCCN(CCCC)N=O	inactive
O=Cc1ccco1	inactive

What outcome value was documented for this compound, `c1ccc(NNc2ccccc2)cc1` ?
inactive

====

Test summary: qHTS assay to identify small molecule agonists of the peroxisome proliferator-activated receptor delta (PPARd) signaling pathway - cell viability counter screen (AID 743211); also: nearly all actives have a fitted effect of over 55% in size
Measurement context: PPARd-bla HEK293H viability, CellTiter-Glo luminescence, 17 h; series mostly up to 62.6 µM
Excerpt: U.S. Tox21 Program National Center for Advancing Translational Sciences [NCATS] NIH Chemical Genomics Center [NCGC] U.S. Environmental Protection Agency [EPA] National Institutes of Environmental Health Sciences [NIEHS] National Toxicology Program [NTP] U.S. Food and Drug Administration [FDA] […]
Inconclusive results are not listed. The source made the active and inactive calls. The call rests on the fitted dose curve; in most records, active means well fitted cell-killing curve with a large enough effect in the repeat runs; inconclusive means weak or mixed curves; inactive means no such curve, though single readings can be large or run the other way.
Measurement type: outcome

Compound structure string	outcome
c1ccc(P(c2ccccc2)c2ccccc2)cc1	inactive
C[C@]12CCC(=O)C[C@@H]1CC[C@@H]1[C@@H]2CC[C@]2(C)[C@@H](O)CC[C@@H]12	inactive
Nc1ccc(-c2ccc(N)c(N)c2)cc1N	inactive
Oc1ccc(-c2ccccc2)cc1	inactive
O=P(O)(O)CCCl	inactive

What outcome value was documented for this molecule, `COP(=S)(OC)Oc1ccc([N+](=O)[O-])cc1` ?
inactive

Can you check `CCOP(=S)(OCC)O/N=C(\C#N)c1ccccc1` next?
inactive

Can you check `Cc1cc(C)cc(C)c1` next?
inactive

Can you check `O=C(O)C(F)(F)C(F)(F)C(F)(F)C(F)(F)C(F)(F)C(F)(F)C(F)(F)F` next?
inactive

Can you check `CCN(CC)C(=O)SCc1ccc(Cl)cc1` next?
inactive

Can you check `Nc1ccc(-c2ccccc2)cc1` next?
inactive

Can you check `O=[N+]([O-])c1c(Cl)c(Cl)c(Cl)c(Cl)c1Cl` next?
inactive

Can you check `C=CC(=O)OCCO` next?
inactive

Can you check `Cc1ccc2c(c1N)C(=O)c1ccccc1C2=O` next?
inactive

Can you check `C1=Cc2cccc3cccc1c23` next?
inactive

Can you check `CCC(CC)Nc1c([N+](=O)[O-])cc(C)c(C)c1[N+](=O)[O-]` next?
inactive

Can you check `CCCCN(CC)c1c([N+](=O)[O-])cc(C(F)(F)F)cc1[N+](=O)[O-]` next?
inactive

Can you check `C=CCc1ccc(OC)cc1` next?
inactive

====

Experimental target: Cytochrome P450 2D6 (Homo sapiens) (UniProt P10635)
Sequence (P10635 whole entry, looked up): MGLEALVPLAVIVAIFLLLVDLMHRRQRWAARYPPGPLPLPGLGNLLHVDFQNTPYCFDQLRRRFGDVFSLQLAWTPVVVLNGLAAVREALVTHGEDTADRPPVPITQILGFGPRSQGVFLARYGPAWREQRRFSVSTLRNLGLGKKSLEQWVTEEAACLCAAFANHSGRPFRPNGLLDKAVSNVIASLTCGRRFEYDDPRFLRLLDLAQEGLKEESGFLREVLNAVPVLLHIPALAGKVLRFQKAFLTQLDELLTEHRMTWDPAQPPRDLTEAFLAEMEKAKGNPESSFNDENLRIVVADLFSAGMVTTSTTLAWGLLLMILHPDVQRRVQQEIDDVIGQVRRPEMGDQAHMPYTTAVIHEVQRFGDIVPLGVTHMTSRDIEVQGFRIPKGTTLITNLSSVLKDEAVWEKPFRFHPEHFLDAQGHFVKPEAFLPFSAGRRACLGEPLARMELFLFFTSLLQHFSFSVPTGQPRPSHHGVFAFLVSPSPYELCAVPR
Test summary: Cytochrome P450 Family 2 Subfamily D Member 6 (CYP2D6) small molecule antagonists: luciferase reporter qHTS assay (AID 1671196); also: nearly all actives have a fitted effect of over 50% in size
Measurement context: P450-Glo CYP2D6 enzyme assay, luciferin luminescence, 1 h; series mostly up to 115 µM
Results filed as inconclusive are left out. The source made the active and inactive calls. The call rests on the fitted dose curve; in most records, active means well fitted inhibition curve with a large enough effect in the repeat runs; inconclusive means weak or mixed curves; inactive means no such curve, though single readings can be large or run the other way.
Assign a class; possible classes are Yes (active), No (inactive)

Check out these entries, answers already filled in.
Compound	Class assignment
C#C[C@]1(O)CC[C@H]2[C@@H]3CCC4=CC(=O)CC[C@]4(C)[C@H]3CC[C@@]21C	No
O=C(O)CC[N+](=O)[O-]	No
CC(C)c1ccc(CO)cc1	No

Lab log entry: `C=CC(=O)OCCO` — outcome as called in the assay?
No

Can you check `Nn1cnnc1` next?
No

Can you check `OCC(O)CO` next?
No

Can you check `Nc1ccc(Cl)cc1N` next?
Yes

Can you check `C1=Cc2cccc3cccc1c23` next?
No

Can you check `CN(C)C(=O)Nc1ccc(Cl)cc1` next?
Yes
